Tested on: AABA1060 (clinical isolate of Acinetobacter baumannii)
Test: MIC broth microdilution, AABA1060
Format: cell-based
Stated conditions: Acinetobacter baumannii, read-out: MIC AABA1060

[
  {
    "Compound": "O=C(CNC1CC1)NC[C@H](NC(=O)c1ccc(/C=C/C#Cc2ccc(CO)cc2)cc1)C(=O)NO",
    "System tested": "AABA1060 (clinical isolate of Acinetobacter baumannii)",
    "MIC": "16 to 64 µg/mL"
  },
  {
    "Compound": "CC(C)(N)[C@H](NC(=O)c1ccc(C#CC#Cc2ccc(N)cc2)cc1)C(=O)NO",
    "System tested": "AABA1060 (clinical isolate of Acinetobacter baumannii)",
    "MIC": "< 2 µg/mL"
  },
  {
    "Compound": "C[C@@H](N)[C@H](NC(=O)c1ccc(C#C/C=C/c2ccccc2)cc1)C(=O)NO",
    "System tested": "AABA1060 (clinical isolate of Acinetobacter baumannii)",
    "MIC": "2 to 16 µg/mL"
  },
  {
    "Compound": "C[C@H](O)[C@H](NC(=O)c1ccc(/C=C/C#Cc2ccc(CNC3CC3)cc2)cc1)C(=O)NO",
    "System tested": "AABA1060 (clinical isolate of Acinetobacter baumannii)",
    "MIC": "2 to 16 µg/mL"
  },
  {
    "Compound": "C[C@H](C#CC#Cc1ccc(C(=O)N[C@H](C(=O)NO)[C@@H](C)N)cc1)N1CCOCC1",
    "System tested": "AABA1060 (clinical isolate of Acinetobacter baumannii)",
    "MIC": "16 to 64 µg/mL"
  },
  {
    "Compound": "CC(C)C#CC#Cc1ccc(C(=O)NC(C(=O)NO)[C@@H](C)N)cc1 (stereo partly shown)",
    "System tested": "AABA1060 (clinical isolate of Acinetobacter baumannii)",
    "MIC": "2 to 16 µg/mL"
  },
  {
    "Compound": "C[C@H](NCC(=O)NC[C@H](NC(=O)c1ccc(C#C/C=C/c2ccccc2)cc1)C(=O)NO)c1ccccc1",
    "System tested": "AABA1060 (clinical isolate of Acinetobacter baumannii)",
    "MIC": "16 to 64 µg/mL"
  },
  {
    "Compound": "CCOCc1ccc(C#Cc2ccc(C(=O)N[C@H](C(=O)NO)[C@@H](C)N)cc2)cc1",
    "System tested": "AABA1060 (clinical isolate of Acinetobacter baumannii)",
    "MIC": "2 to 16 µg/mL"
  },
  {
    "Compound": "O=C(CNC1CC1)NC[C@H](NC(=O)c1ccc(C#C/C=C/c2ccc(CN3CCOCC3)cc2)cc1)C(=O)NO",
    "System tested": "AABA1060 (clinical isolate of Acinetobacter baumannii)",
    "MIC": "16 to 64 µg/mL"
  },
  {
    "Compound": "NC[C@H](NC(=O)c1ccc(C#CC#Cc2ccc(CO)cc2)cc1)C(=O)NO",
    "System tested": "AABA1060 (clinical isolate of Acinetobacter baumannii)",
    "MIC": "16 to 64 µg/mL"
  },
  {
    "Compound": "COCc1ccc(C#C/C=C/c2ccc(C(=O)N[C@H](C(=O)NO)[C@@H](C)N)cc2)cc1",
    "System tested": "AABA1060 (clinical isolate of Acinetobacter baumannii)",
    "MIC": "< 2 µg/mL"
  },
  {
    "Compound": "CC(C)(N)[C@H](NC(=O)c1ccc(C#CC2CC2c2ccccc2)cc1)C(=O)NO (stereo partly shown)",
    "System tested": "AABA1060 (clinical isolate of Acinetobacter baumannii)",
    "MIC": "< 2 µg/mL"
  },
  {
    "Compound": "CC(C)CCC#CC#Cc1ccc(C(=O)N[C@H](C(=O)NO)C(C)(C)N)cc1",
    "System tested": "AABA1060 (clinical isolate of Acinetobacter baumannii)",
    "MIC": "2 to 16 µg/mL"
  },
  {
    "Compound": "CC(C)CC#CC#Cc1ccc(C(=O)N[C@H](C(=O)NO)C(C)(C)O)cc1",
    "System tested": "AABA1060 (clinical isolate of Acinetobacter baumannii)",
    "MIC": "2 to 16 µg/mL"
  },
  {
    "Compound": "C[C@@H](N)[C@H](NC(=O)c1ccc(/C=C/C#Cc2ccccc2F)cc1)C(=O)NO",
    "System tested": "AABA1060 (clinical isolate of Acinetobacter baumannii)",
    "MIC": "< 2 µg/mL"
  },
  {
    "Compound": "O=C(NC(C(=O)NO)C1CCOCC1)c1ccc(C#Cc2ccc(CN3CCOCC3)cc2)cc1 (stereo not shown)",
    "System tested": "AABA1060 (clinical isolate of Acinetobacter baumannii)",
    "MIC": "16 to 64 µg/mL"
  }
]

====

MIC overview
Tested on: APAE001 (ATCC27853)
Test: MIC broth microdilution, APAE001
Format: cell-based, P. aeruginosa
Stated conditions: Pseudomonas aeruginosa, ATCC27853, read-out: MIC APAE001, APAE001 is ATCC27853
Property label: MIC

[
  {
    "Compound": "CC(=O)NC[C@H](NC(=O)c1ccc(/C=C/C#Cc2ccc(CN3CCOCC3)cc2)cc1)C(=O)NO [Example 111-3]",
    "Reported result": "2 to 16 µg/mL"
  },
  {
    "Compound": "C[C@H](O)[C@H](NC(=O)c1ccc(/C=C/C#Cc2ccc(CNC3CC3)cc2)cc1)C(=O)NO [Example 113-4]",
    "Reported result": "2 to 16 µg/mL"
  },
  {
    "Compound": "C[C@@H](N)[C@H](NC(=O)c1ccc(C#CC#Cc2ccc(OC(F)(F)F)cc2)cc1)C(=O)NO [Example 82-11]",
    "Reported result": "16 to 64 µg/mL"
  },
  {
    "Compound": "C[C@@H](N)[C@H](NC(=O)c1ccc(C#Cc2ccc(CN3CCC3)cc2)cc1)C(=O)NO [Example 118-1]",
    "Reported result": "2 to 16 µg/mL"
  },
  {
    "Compound": "O=C(N[C@H](C(=O)NO)c1ccccc1)c1ccc(/C=C/C#Cc2ccc(CN3CCOCC3)cc2)cc1 [Example 110-11]",
    "Reported result": "16 to 64 µg/mL"
  },
  {
    "Compound": "C[C@@H](N)[C@H](NC(=O)c1ccc(C#Cc2ccc(CNCCF)cc2)cc1)C(=O)NO [Example 118-9]",
    "Reported result": "< 2 µg/mL"
  },
  {
    "Compound": "C[C@H](O)[C@H](NC(=O)c1ccc(/C=C/C#Cc2ccc(CN3CCOCC3)cc2)cc1)C(=O)NO [Example 110-5]",
    "Reported result": "2 to 16 µg/mL"
  }
]

====

System: AABA1060 (clinical isolate of Acinetobacter baumannii)
Test: MIC broth microdilution, AABA1060
Type: cell-based
Stated conditions: Acinetobacter baumannii, read-out: MIC AABA1060
MIC overview
Property label: MIC

[
  {
    "Smiles entry": "NC[C@H](NC(=O)C#Cc1ccc(C#CCN2CCOCC2)cc1)C(=O)NO",
    "Reported result": "> 64 µg/mL"
  },
  {
    "Smiles entry": "CC(C)(N)[C@H](NC(=O)c1ccc(C#CC#CC2CCC2)cc1)C(=O)NO",
    "Reported result": "< 2 µg/mL"
  },
  {
    "Smiles entry": "CN(C)CC(=O)NC[C@H](NC(=O)c1ccc(/C=C/C#Cc2ccc(CN3CCOCC3)cc2)cc1)C(=O)NO",
    "Reported result": "2 to 16 µg/mL"
  },
  {
    "Smiles entry": "C[C@@H](N)[C@H](NC(=O)c1ccc(C#Cc2ccc(COCC(F)(F)F)cc2)cc1)C(=O)NO",
    "Reported result": "16 to 64 µg/mL"
  }
]

====

MIC overview
System: ASAU001 (laboratory strain of S. aureus, ATCC29213)
Test: MIC broth microdilution, ASAU001
Type: cell-based
Stated conditions: Staphylococcus aureus, ATCC29213, read-out: MIC ASAU001
Property label: MIC

[
  {
    "Molecule": "C[C@@H](N)[C@H](NC(=O)c1ccc(C#C/C=C/c2ccc(F)cc2)cc1)C(=O)NO [Example 106-6]",
    "System tested": "ASAU001 (laboratory strain of S. aureus, ATCC29213)",
    "Property label": "MIC",
    "Reported result": "16 to 64 µg/mL"
  },
  {
    "Molecule": "CC(C)(O)[C@H](NC(=O)c1ccc(C#CC#Cc2cccs2)cc1)C(=O)NO [Example 88-11]",
    "System tested": "ASAU001 (laboratory strain of S. aureus, ATCC29213)",
    "Property label": "MIC",
    "Reported result": "16 to 64 µg/mL"
  },
  {
    "Molecule": "CC(C)(N)[C@H](NC(=O)c1ccc(C#CC#Cc2ccsc2)cc1)C(=O)NO [Example 88-15]",
    "System tested": "ASAU001 (laboratory strain of S. aureus, ATCC29213)",
    "Property label": "MIC",
    "Reported result": "2 to 16 µg/mL"
  },
  {
    "Molecule": "CC(C)(N)[C@H](NC(=O)c1ccc(C#Cc2ccc(CNCC(F)F)cc2)cc1)C(=O)NO [Example 122-3]",
    "System tested": "ASAU001 (laboratory strain of S. aureus, ATCC29213)",
    "Property label": "MIC",
    "Reported result": "16 to 64 µg/mL"
  },
  {
    "Molecule": "C[C@@H](N)[C@H](NC(=O)c1ccc(/C=C/C#Cc2cccc(Cl)c2)cc1)C(=O)NO [Example 114-4]",
    "System tested": "ASAU001 (laboratory strain of S. aureus, ATCC29213)",
    "Property label": "MIC",
    "Reported result": "2 to 16 µg/mL"
  },
  {
    "Molecule": "CC(C)(O)[C@H](NC(=O)c1ccc(C#CC#Cc2ccsc2)cc1)C(=O)NO [Example 88-14]",
    "System tested": "ASAU001 (laboratory strain of S. aureus, ATCC29213)",
    "Property label": "MIC",
    "Reported result": "16 to 64 µg/mL"
  },
  {
    "Molecule": "C[C@@H](O)[C@H](NC(=O)c1ccc(/C=C/C#Cc2ccccc2F)cc1)C(=O)NO [Example 114-12]",
    "System tested": "ASAU001 (laboratory strain of S. aureus, ATCC29213)",
    "Property label": "MIC",
    "Reported result": "16 to 64 µg/mL"
  },
  {
    "Molecule": "NC[C@H](NC(=O)c1ccc(C#C/C=C/c2ccccc2)cc1)C(=O)NO [Example 104-2]",
    "System tested": "ASAU001 (laboratory strain of S. aureus, ATCC29213)",
    "Property label": "MIC",
    "Reported result": "16 to 64 µg/mL"
  },
  {
    "Molecule": "C[C@@H](N)[C@H](NC(=O)c1ccc(C#C/C=C/C2CC2)cc1)C(=O)NO [Example 107-2]",
    "System tested": "ASAU001 (laboratory strain of S. aureus, ATCC29213)",
    "Property label": "MIC",
    "Reported result": "2 to 16 µg/mL"
  },
  {
    "Molecule": "O=C(N[C@H](C(=O)NO)C1CCNCC1)c1ccc(C#Cc2ccc(CN3CCOCC3)cc2)cc1 [Example 65-6]",
    "System tested": "ASAU001 (laboratory strain of S. aureus, ATCC29213)",
    "Property label": "MIC",
    "Reported result": "> 64 µg/mL"
  },
  {
    "Molecule": "CC(C)(N)[C@H](NC(=O)c1ccc(/C=C/C#CC2CCCC2)cc1)C(=O)NO [Example 114-20]",
    "System tested": "ASAU001 (laboratory strain of S. aureus, ATCC29213)",
    "Property label": "MIC",
    "Reported result": "2 to 16 µg/mL"
  },
  {
    "Molecule": "C[C@@H](N)[C@H](NC(=O)c1ccc(C#Cc2ccc(CN(C)Cc3cccnc3)cc2)cc1)C(=O)NO [Example 115-5]",
    "System tested": "ASAU001 (laboratory strain of S. aureus, ATCC29213)",
    "Property label": "MIC",
    "Reported result": "> 64 µg/mL"
  },
  {
    "Molecule": "CC(C)(N)[C@H](NC(=O)c1ccc(C#Cc2ccccc2)cc1)C(=O)NO [Example 133-6]",
    "System tested": "ASAU001 (laboratory strain of S. aureus, ATCC29213)",
    "Property label": "MIC",
    "Reported result": "2 to 16 µg/mL"
  },
  {
    "Molecule": "CC(C)(N)[C@H](NC(=O)c1ccc(C#CC#Cc2cncs2)cc1)C(=O)NO [Example 88-16]",
    "System tested": "ASAU001 (laboratory strain of S. aureus, ATCC29213)",
    "Property label": "MIC",
    "Reported result": "16 to 64 µg/mL"
  },
  {
    "Molecule": "CN(C)CC(=O)NC[C@H](NC(=O)c1ccc(/C=C/C#Cc2ccc(CN3CCOCC3)cc2)cc1)C(=O)NO [Example 111-2]",
    "System tested": "ASAU001 (laboratory strain of S. aureus, ATCC29213)",
    "Property label": "MIC",
    "Reported result": "16 to 64 µg/mL"
  },
  {
    "Molecule": "CC(C)(O)[C@H](NC(=O)c1ccc(C#C/C=C/c2cccnc2)cc1)C(=O)NO [Example 106-5]",
    "System tested": "ASAU001 (laboratory strain of S. aureus, ATCC29213)",
    "Property label": "MIC",
    "Reported result": "16 to 64 µg/mL"
  }
]
